// values below are reported Plant response rating, Foxtail, Giant
Test system: foxtail, giant (Setaria faberii)
method: Test A preemergence, giant foxtail
Assay type: in vivo
settings: 500 g ai/ha, 0 to 100 scale (0 no effect, 100 complete control)
Description: Test A Seeds of plant species selected from barnyardgrass (Echinochloa crus-galli), kochia (Kochia scoparia), ragweed (common ragweed, Ambrosia elatior), ryegrass, Italian (Lolium multiflorum), foxtail, giant (Setaria faberii), and pigweed (Amaranthus retroflexus), were planted into a blend of loam soil and sand and treated preemergence with a directed soil spray using test chemicals formulated in a non-phytotoxic solvent mixture which included a surfactant. […]
Reply with the value as a number alone.

Sample records with Plant response rating, Foxtail, Giant:
compound	value.kind	test.result
CN1CC(c2cccc(Oc3ccc(F)cc3)c2)C(C(=O)Nc2cccc(F)c2F)C1=O (single isomer, unassigned) [Compound 46]	Plant response rating, Foxtail, Giant	90
O=C1NCC(c2cccc(OCc3ccco3)c2)C1C(=O)Nc1ccccc1C(F)(F)F (stereo not drawn) [Compound 2]	Plant response rating, Foxtail, Giant	20
O=C1NCC(c2cccc(OCC3OCCO3)c2)C1C(=O)Nc1cccc(F)c1F (stereo not drawn) [Compound 7]	Plant response rating, Foxtail, Giant	90
CN(C)N=Cc1cccc(C2CN(C)C(=O)C2C(=O)Nc2ccccc2F)c1 (stereo not drawn) [Compound 54]	Plant response rating, Foxtail, Giant	70
O=C1NCC(c2cccc(Cn3ccc(C(F)(F)F)n3)c2)C1C(=O)Nc1cccc(F)c1F (stereo not drawn) [Compound 25]	Plant response rating, Foxtail, Giant	80
O=C1NCC(c2cccc(OCc3ccco3)c2)C1C(=O)Nc1ccccc1Cl (stereo not drawn) [Compound 1]	Plant response rating, Foxtail, Giant	0
O=C1NCC(c2cccc(Oc3ccc(C(F)(F)F)cn3)c2)C1C(=O)Nc1cccc(F)c1F (single isomer, unassigned) [Compound 47]	Plant response rating, Foxtail, Giant	90
O=C1NCC(c2cccc(OCc3ccccc3)c2)C1C(=O)Nc1ccc(F)c(F)c1F (stereo not drawn) [Compound 66]	Plant response rating, Foxtail, Giant	0
O=C1NCC(c2ccccc2Cn2ccc(C(F)(F)F)n2)C1C(=O)Nc1ccc(F)c(F)c1F (stereo not drawn) [Compound 58]	Plant response rating, Foxtail, Giant	90
O=C1NCC(c2cccc(OCc3ccccc3)c2)C1C(=O)Nc1cccc(F)c1F (stereo not drawn) [Compound 65]	Plant response rating, Foxtail, Giant	0

Prompt line: Form entry - test system: foxtail, giant (Setaria faberii); read-out: Plant response rating, Foxtail, Giant; compound: CN1CC(c2cccc(Oc3ccc(C(F)(F)F)cn3)c2)C(C(=O)Nc2cccc(F)c2F)C1=O (single isomer, unassigned) [Compound 44]
Response line: 90

Prompt line: Same question for O=C1NCC(c2cccc(OCc3ccco3)c2)C1C(=O)Nc1cccc(F)c1F (stereo not drawn) [Compound 9] please.
Response line: 70

Prompt line: Queued: O=C1NCC(c2cccc(OCc3ccccc3)c2)C1C(=O)Nc1ccccc1F (stereo not drawn) [Compound 63]
Response line: 0

Prompt line: Follow-up entry: O=C1NCC(c2cccc(Cn3cncn3)c2)C1C(=O)Nc1ccccc1F (stereo not drawn) [Compound 31]
Response line: 0

Prompt line: Repeat for the following compound: O=C1NCC(c2cccc(Cn3cccn3)c2)C1C(=O)Nc1ccc(F)c(F)c1F (stereo not drawn) [Compound 26]
Response line: 90

Prompt line: Now try O=C1NCC(c2cccc(COc3ccccc3)c2)C1C(=O)Nc1ccccc1Cl (stereo not drawn) [Compound 18] .
Response line: 20

Prompt line: What do you have for O=C1NCC(c2cccc(Oc3ncc(Cl)cn3)c2)C1C(=O)Nc1ccccc1F (stereo not drawn) [Compound 55] ?
Response line: 90

Prompt line: Request: O=C1NCC(c2cccc(OC(F)(F)C(F)OC(F)(F)F)c2)C1C(=O)Nc1ccccc1F (stereo not drawn) [Compound 40]
Response line: 90

Prompt line: Next up: O=C1NCC(c2cccc(Cn3cncn3)c2)C1C(=O)Nc1cccc(F)c1F (stereo not drawn) [Compound 32]
Response line: 40

Prompt line: Try the compound CN1CC(c2cccc(OC(F)(F)C(F)OC(F)(F)F)c2)C(C(=O)Nc2ccccc2F)C1=O (stereo not drawn) [Compound 41]
Response line: 90

Prompt line: Can you handle O=C1NCC(c2cccc(Oc3ncc(Cl)cn3)c2)C1C(=O)Nc1cccc(F)c1F (stereo not drawn) [Compound 56] next?
Response line: 0

Prompt line: Try the compound O=C1NCC(c2cccc(OCC3OCCO3)c2)C1C(=O)Nc1ccccc1C(F)(F)F (stereo not drawn) [Compound 5]
Response line: 90

Prompt line: Query O=C1NCC(c2cccc(Cn3cccn3)c2)C1C(=O)Nc1ccccc1F (stereo not drawn) [Compound 27] next
Response line: 30
